- Test system: HCI-023 (organoid from a triple-negative breast cancer xenograft)
- procedure_text: CTG-3D luminescence at 96 h relative to day-0 seeding control (ratio to day 0); higher = more growth / less cytotoxicity; PDxO 3D drug screen (set 2), 96 h, CTG-3D normalised to day-0 seeding control.
- particulars: 0.00025 µM; days in culture: 252
Values of CTG-3D luminescence at 96 h greater than or equal to 2 map to yes (1); values below map to no (0).

Incoming: State whether the measured CTG-3D luminescence at 96 h reaches 2, counting equality as reaching it, for CO[C@H]1C[C@@H]2CC[C@@H](C)[C@@](O)(O2)C(=O)C(=O)N2CCCC[C@H]2C(=O)O[C@H]([C@H](C)C[C@@H]2CC[C@@H](O)[C@H](OC)C2)CC(=O)[C@H](C)/C=C(\C)[C@@H](O)[C@@H](OC)C(=O)[C@H](C)C[C@H](C)/C=C/C=C/C=C/1C [rapamycin]
Outgoing: no (0)

Incoming: hey, is CTG-3D luminescence at 96 h for this one >= 2? COc1cccc2c1C(=O)c1c(O)c3c(c(O)c1C2=O)C[C@@](O)(C(=O)CO)C[C@@H]3O[C@H]1C[C@H](N)[C@@H](O)[C@H](C)O1 [epirubicin]
Outgoing: yes (1)

Incoming: Could you verify whether the entry Nc1cc(C(F)(F)F)c(-c2cc(N3CCOCC3)nc(N3CCOCC3)n2)cn1 [buparlisib] shows CTG-3D luminescence at 96 h of no less than 2?
Outgoing: yes (1)

Incoming: In plain terms: is recorded CTG-3D luminescence at 96 h at least 2 for CCOc1ccn(-c2ccc(F)cc2)c(=O)c1C(=O)Nc1ccc(Oc2ccnc(N)c2Cl)c(F)c1 [ASLAN002] ?
Outgoing: no (0)

Incoming: Is the recorded value of CTG-3D luminescence at 96 h equal to or greater than 2 for this molecule? CC(=O)O[C@@]12CO[C@@H]1C[C@H](O)[C@@]1(C)C(=O)[C@H](O)C3=C(C)[C@@H](OC(=O)[C@H](O)[C@@H](NC(=O)OC(C)(C)C)c4ccccc4)C[C@@](O)([C@@H](OC(=O)c4ccccc4)[C@H]21)C3(C)C [docetaxel]
Outgoing: no (0)

----------
- Test system: HCI-016 (organoid from a triple-negative breast cancer xenograft)
- procedure_text: CTG-3D luminescence at 96 h relative to day-0 seeding control (ratio to day 0); higher = more growth / less cytotoxicity; PDxO 3D drug screen, 96 h, CTG-3D normalised to day-0 seeding control.
- particulars: 0.005 µM; days in culture: 153
quantity_measured: CTG-3D luminescence at 96 h
Field format: numeric only.

Incoming: Tell me its CTG-3D luminescence at 96 h given Cc1nc(-c2cn3c(n2)-c2ccc(-c4cnn(C(C)(C)C(N)=O)c4)cc2OCC3)n(C(C)C)n1 as the entry.
Outgoing: 2.05

Incoming: Quick one: give measured CTG-3D luminescence at 96 h for Nc1ccn([C@@H]2O[C@H](CO)[C@@H](O)C2(F)F)c(=O)n1
Outgoing: 2.52

Incoming: Determine from records and report CTG-3D luminescence at 96 h for COc1cccc2c1C(=O)c1c(O)c3c(c(O)c1C2=O)C[C@@](O)(C(=O)CO)C[C@@H]3O[C@H]1C[C@H](N)[C@H](O)[C@H](C)O1
Outgoing: 2.02

Incoming: Return reported CTG-3D luminescence at 96 h. Input compound: Cc1cc(Nc2ncc(Cl)c(Nc3ccccc3S(=O)(=O)C(C)C)n2)c(OC(C)C)cc1C1CCNCC1
Outgoing: 2.13
